Hey, just so you know, these numbers are from patent US12297193B2.

Reported values of concentration at 0.5 h for individual entries
protocol: PK study in SD rats after a single intravenous administration
Assay type: in vivo
conditionContext: Sprague-Dawley (SD), rat, plasma, 1 mg/kg, 0.5 h
# output: bare number, implied unit ng/mL

molecule | measurementLabel | testValue
CC1(C)CC(Nc2cccc(-c3sc(C(=O)O)c(OCC(=O)O)c3Cl)c2)CCN1S(=O)(=O)Cc1ccc2oc(N3CCC(c4ccc5c6c(cccc46)C(=O)N5C4CCC(=O)NC4=O)CC3)nc2c1 (stereo not shown) [Compound 21] | concentration at 0.5 h | 9660
[2H]C([2H])(c1ccc2oc(N3CCC(c4ccc5c6c(cccc46)C(=O)N5C4CCC(=O)NC4=O)CC3)nc2c1)S(=O)(=O)N1CCC(Nc2cccc(-c3sc(C(=O)O)c(OCC(=O)O)c3Cl)c2)CC1(C)C (stereo not shown) [Compound 151] | concentration at 0.5 h | 11500
O=C(O)COc1c(C(=O)O)sc(-c2cccc(NC3CCN(S(=O)(=O)Cc4ccc5oc(N6CCC(c7ccc8c9c(cccc79)C(=O)N8C7CCC(=O)NC7=O)CC6)nc5c4)C4(CC4)C3)c2)c1Cl (stereo not shown) [Compound 57] | concentration at 0.5 h | 13200

Now turn to the next molecule.
# concentration at 0.5 h of O=C(O)COc1c(C(=O)O)sc(-c2cccc(NC3CCN(S(=O)(=O)Cc4ccc5oc(N6CCC(c7ccc8c9c(cccc79)C(=O)N8C7CCC(=O)NC7=O)CC6)nc5c4)CC3)c2)c1Cl (stereo not shown) [Compound 23] = 12600
